- SUBJECT OF TEST: T1, purified recombinant MHC II protein, allele DRB1*0101 (human)
- T1 construct: bought from Benaroya Research Institute; also called MHC-II DR molecule
- PROTOCOL TEXT: MHC II competition binding assay;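 note: Peptide–MHC II complexes pulled from equilibrium mixtures onto ELISA plates carrying a conformation-specific anti-HLA-DR antibody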
Each entry below lists one item and its recorded IC50 value.
Return type: number; implicit unit nM.

Worked examples, 2 binders total:
GVDFFMNIGTPVKAISSGKIV [cluster 2 wild-type (C2WT) epitope peptide]	220
GVDFFMNEGTPVKAISSGKIV (synthetic mutated peptide of the lysostaphin catalytic domain; also called I41E) [cluster 2 peptide with Ile41Glu]	590

## Task Need IC50, item GVDFFMNIGTPVHAISSGKIV (synthetic mutated peptide of the lysostaphin catalytic domain; also called K46H) [cluster 2 peptide with Lys46His]
## Result 490
